The values you see were collected from the supplement of paper PMC9170038.

- Test system: MS2 coat protein
- experimentNotes: apparent KD of MS2 coat protein; higher = weaker reporter binding
- conditionInfo: Eterna round: R101; input ligand: none
valueKind: apparent KD of MS2 coat protein (nM)
Express the result in nM but write the number alone.

# count of solved cases: 3
sequenceRecord: GCAGCUAAUGCAGGAUAUCAGCACGUGUAGUGCUGAGAAGGGCACAUGAGGAUACCCACUGUGAUCAAUUAAUAUUAAUGCUGC [salish99#hingeEx3_55-58_002] (puzzle (switch architecture): Exclusion NG 1)
apparent KD of MS2 coat protein / nM: 50.2

sequenceRecord: AGGUAUACUUAGAAGGGCUCCAGCAAAGCUGGAGCAGGAUAUGAGGAUCACCCAUAUCACCUGACGGUCGAAACGACCGUCAGG [#SharedSequence - IExNG1: 8-1] (puzzle (switch architecture): Inverted Exclusion NG 1)
apparent KD of MS2 coat protein / nM: 13.2

sequenceRecord: GUGCUUGUCGAAGGAUAUGGUUACAUGAGGAUCACCCAUGUUAUGCUUGGUUACUUGUUUAGUUUCCAGAAGGUCGAUUAGUUG [salish99_ExNG2_001 #Hinge] (puzzle (switch architecture): Exclusion NG 2)
apparent KD of MS2 coat protein / nM: 23

Give apparent KD of MS2 coat protein for UUAUUAUAUGUAGGAUAUGCAUAUUAUUACUGUGCAGAAGGACAUGAGGAUCACCCAUGUAUAUUAUUAUUAUAUAUUAUAUAU (puzzle (switch architecture): Exclusion NG 1)
17.2

Give apparent KD of MS2 coat protein for GUCGGAAACGACAAGUCAGCUCGUGAGGAUAUACAUAAAUUAAAGAUCACAUGAGGAUCACCCAUGUAGAAGGCACGAGCUGAU [#StaticStemDeletion - ENG2/2-A2] (puzzle (switch architecture): Small Loop Exclusion NG 3)
195

Give apparent KD of MS2 coat protein for GACUGCAGGAUAACAACCUGCAGUCACUUCUGAGGAUCACCCAGAAGGGCUGAGGUAAUACCUCAGCAGGAUAUGGAGUGAAAA [#SharedSequence IExNG# - 5] (puzzle (switch architecture): Inverted Exclusion NG 3)
64.3

Give apparent KD of MS2 coat protein for GGUACUCAAAGAGUACCAAUACGAACAUGAGGAUCACCCAUGUAGGAUAUGCUACUCAAAGAGUAGCAGAAGGACAUGUGUCUA [jl-ex3-3.01 #GC_VS_GU_SWITCHING] (puzzle (switch architecture): Exclusion NG 3)
13.9

Give apparent KD of MS2 coat protein for ACACAUGAGGAUCACCCAUGUAGCUGGCGUCUGCGCCAGCCACAGGAUAUACGGUAACACAAACCGUAGAAGGGUGAUAAACAC [Inerre] (puzzle (switch architecture): Same State NG 3)
113

Give apparent KD of MS2 coat protein for ACACGUCGUGAGAAGGAGGAUCACCCUUUCGAAAGAAAUAGCCACCGUGAAAACGGUGGCAAAUCUUAGGAUAUCACGACGUGA [#SharedSequence - IExNG2: 5] (puzzle (switch architecture): Inverted Exclusion NG 2)
189

Give apparent KD of MS2 coat protein for GGUCGACUUCAAGGAUAUGGACUGCUUUGCAGUCCAGAAGGUGAGGAUCACCCACCUACGGUCAGGUUUCUGACCGAUCGACCU [#AddUracilToBrourdLoops 4 - Jieux - Exclusion NG1] (puzzle (switch architecture): Exclusion NG 1)
7.94

Give apparent KD of MS2 coat protein for AAUAAUCUUUAAGGAUAUCAGUGGCAAAGCCACUGAGAAGGUGAGGAUCACCCAUCUACGUGACCCUGGAAACAGGGUCACGAA [#SharedSequence - ExNG1-12] (puzzle (switch architecture): Exclusion NG 1)
66.7

Give apparent KD of MS2 coat protein for AGAGCUGCUCAGAAGGAGGAUCACCCUUUCGAAAGAAAGACGGAGGCUGAAAAGCCUCCGAAAUUCUAGGAUAUGAGCAGCUCA [#SharedSequence - IExNG2: 1] (puzzle (switch architecture): Inverted Exclusion NG 2)
204

Give apparent KD of MS2 coat protein for GGAGAUACAUGAGGAUCACCCAUGUAGGAUAUCGGGCCCAUAUCCGGCGAAAGCCGGAUAUGGGCCGAGAAGGGCGUACACACC [#LOL-6] (puzzle (switch architecture): Small Loop Exclusion NG 3)
8.68

Give apparent KD of MS2 coat protein for UAUUCUUUGUUAGGAUAUGGGCCCACCCACCCACAAAGUGGGUGGGUGGGCCCAGAAGGAACAUGAGGAUCACCCAUGUAGGCC [#Aaaddddeeeeeeennnniiiinneeeee!] (puzzle (switch architecture): Small Loop Exclusion NG 1)
6.16

Give apparent KD of MS2 coat protein for AGGUAUACUUAGAAGGGCUCCAGCAAAGCUGGAGCAGGAUAUGAGGAUCACCCAUGUCACCUGACGGUCGAAACGACCGUCAGG [#SharedSequence - IExNG1: 9-1] (puzzle (switch architecture): Inverted Exclusion NG 1)
22.8

Give apparent KD of MS2 coat protein for CGCUAUGACAUGAGGAUCACCCAUGUAUACAUGGGAAUGACGUAGGAUAUGCAGAAGAUUAAAGUGCAGAAGGACGGCUUAGCG [JR #DistanceClose #Static #NP SSNG3 Sub064] (puzzle (switch architecture): Same State NG 3)
830
